# Tested on: SNB-19 CNS
# assay-remarks: NCI-60 one-dose screen, 48 h (100 = growth as untreated, 0 = no growth, -100 = all killed)
# setup-conditions: 10 µM unless noted
The panel holds about 83,000 compounds, 20% with a hit somewhere; the sample as a whole holds those more often.
assay-metric: growth (%)
Provide only the numeric value, understood in %.

CCN1C(=O)N(CC)C2Nn3c(s/c(=C4\C(=O)N(C)c5ccccc54)c3=O)=NC21 (centres undefined) | 56.5
COc1ccc(-c2[nH]c(=S)n(C(CC3(C)NCC(=O)N3n3c(-c4ccccc4)cc(C)nc3=S)c3ccc(OC)cc3)c(=O)c2Br)cc1 (centres undefined) | 55.6
CNC(=O)NCC1OC(n2cnc3c(NC(=O)Nc4ccccc4)ncnc32)C(O[Si](C)(C)C(C)(C)C)C1CC(=O)N(C)OC (centres undefined) | 37.2

Below: the item to evaluate.
Incoming: For the compound N#C/C(=C/C=C/c1cccc(Cl)c1)S(=O)c1ccccc1 (centres undefined) , give its measured growth value.
Outgoing: -53

###

# Tested on: PC-3 prostate
# assay-remarks: NCI-60 one-dose screen, 48 h (100 = growth as untreated, 0 = no growth, -100 = all killed)
# setup-conditions: 10 µM unless noted
# Method: Growth inhibition of the PC-3 human tumor cell line is measured as a screen for anti-cancer activity. Cells are grown in 96 well plates and exposed to the test compound for 48 hours. Compounds are tested at a single concentration, which is 10^-5 M for most compounds. The reported endpoint is percent growth (GI% or GIPRCNT), where numbers from 0 - 100% represent growth inhibition, and numbers from -100% - 0 represent cell death. For example, a value of 40 represents 60% growth inhibition. […]
About 83,000 compounds went through this panel and 20% of them were active in at least one assay; those are over-represented in the sample as a whole.
assay-metric: growth (%)
Provide only the numeric value, understood in %.

Record excerpt, results attached:
COc1ccc(N=Nc2ccc(O)c(=O)cc2)cc1 | 36.6
Cc1nc2ccccc2c(/C=C/c2ccc(Cl)cc2)c1C(=O)/C=C/c1ccc(F)cc1 | 20.4

Incoming: For the compound CNC(=O)c1cc(Oc2ccc3nc(Nc4ccc(Cl)c(C(F)(F)F)c4)ccc3c2)ccn1 , give its measured growth value.
Outgoing: 21.7

Incoming: For the compound Fc1c[c-]c(-c2ccccn2)c(F)c1.[CH3-].[Pt+2].c1ccc(P(C[PH+](c2ccccc2)c2ccccc2)c2ccccc2)cc1 , give its measured growth value.
Outgoing: -33.2

Incoming: For the compound CCn1c(C)nc2cc(C(N)=O)ccc21 , give its measured growth value.
Outgoing: 101

###

# System: NCI-H522 lung
# assay-remarks: NCI-60 one-dose screen, 48 h (100 = growth as untreated, 0 = no growth, -100 = all killed)
# setup-conditions: 10 µM unless noted
# Method: Growth inhibition of the NCI-H522 human Non-Small Cell Lung tumor cell line is measured as a screen for anti-cancer activity. Cells are grown in 96 well plates and exposed to the test compound for 48 hours. Compounds are tested at a single concentration, which is 10^-5 M for most compounds. The reported endpoint is percent growth (GI% or GIPRCNT), where numbers from 0 - 100% represent growth inhibition, and numbers from -100% - 0 represent cell death. […]
Compounds without any hit were thinned out: in the full panel of roughly 83,000, 20% have a hit.
Items are presented alongside their recorded growth.
Provide only the numeric value, understood in %.

Nc1nc(N)c2c(n1)NC(c1ccccc1)C1CCc3ccccc3C1=N2 (stereo not given) | 89.9
N=C1C(c2nc(-c3ccc(Br)cc3)cs2)=C(O)CN1CC1CCCO1 (stereo not given) | 99.6
COc1ccc(-c2nc3c(N)c(CO)c(C)nc3o2)cc1 | 91.6

Incoming: For the molecule Cc1ccc(-c2cc(-c3cccnc3)[nH]c(=O)c2C#N)cc1 , give its measured growth value.
Outgoing: 94

Incoming: For the molecule CN1CCN(C(=O)c2c3c(n4ccccc24)C(=O)c2ncccc2C3=O)CC1 , give its measured growth value.
Outgoing: 51.7

Incoming: For the molecule COC(=O)c1ccc(C2Nc3ccc(S(=O)(=O)Nc4ccc(C)c(C)c4)cc3C3OCCC23)cc1 (stereo not given) , give its measured growth value.
Outgoing: 52.6

Incoming: For the molecule N#Cc1c(N)nc(NCCO)nc1-c1ccc(F)cc1 , give its measured growth value.
Outgoing: 86.6

Incoming: For the molecule CCCCCCN(CCCCCC)c1ccc(/C=C2/SC(=O)N(c3nc(N4CCCC4)nc(N4CCCC4)n3)C2=O)c(C)c1 , give its measured growth value.
Outgoing: 53.2

Incoming: For the molecule Cc1cc(NCCCCNc2ccnc3cc(Cl)ccc23)nc(Nc2ccc(C(=O)N3CCCC3)cc2)n1 , give its measured growth value.
Outgoing: 26.5

Incoming: For the molecule CC/C=C\CCC/C=C1/C(=O)C=C[C@@H]1C/C=C\CCCC(=O)O , give its measured growth value.
Outgoing: 29.9
